Data origin: patent US9522886B2

Form field: pEC50 (one value per entry).
target: UniProt:P21554; test: cAMP assay, CHO cells expressing human CB1 receptors; type: cell-based; details: functional cAMP assay, CHO cells expressing human CB1; read-out: human CB1 EC50
Sequence (P21554 whole entry): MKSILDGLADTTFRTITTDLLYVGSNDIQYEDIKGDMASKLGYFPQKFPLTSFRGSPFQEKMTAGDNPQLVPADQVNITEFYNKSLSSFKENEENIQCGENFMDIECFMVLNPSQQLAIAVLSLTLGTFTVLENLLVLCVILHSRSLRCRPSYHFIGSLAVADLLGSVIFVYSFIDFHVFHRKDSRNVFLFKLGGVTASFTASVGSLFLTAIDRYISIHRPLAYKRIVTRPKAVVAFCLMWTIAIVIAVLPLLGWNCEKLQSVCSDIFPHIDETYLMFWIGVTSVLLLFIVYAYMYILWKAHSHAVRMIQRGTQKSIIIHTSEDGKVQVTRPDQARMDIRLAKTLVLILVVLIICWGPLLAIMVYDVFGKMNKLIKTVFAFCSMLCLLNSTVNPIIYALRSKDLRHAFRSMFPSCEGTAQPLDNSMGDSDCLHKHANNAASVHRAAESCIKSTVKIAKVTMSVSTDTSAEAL
pEC50: −log10 of the molar value.

Query block: Look up pEC50: NC(=O)CC1(NC(=O)c2ccc(OCC3CC3)c(Cl)n2)COC1 [Example 47]
Result block: < 5.00

Query block: Look up pEC50: COC(=O)CC1(NC(=O)c2ccc(N3CC(F)(F)C3)c(OCC3CC3)n2)CCC1 [Example 68]
Result block: < 5.00

Query block: Look up pEC50: NC(=O)CC1(NC(=O)c2ccc(N3CC(F)(F)C3)c(OCC3CC3)n2)CCNC1 (centres unmarked) [Example 84]
Result block: < 5.00

Query block: Look up pEC50: O=C(O)CC1(NC(=O)c2ccc(N3CC(F)(F)C3)c(OCC3CC3)n2)CS(=O)(=O)C1 [Example 56]
Result block: < 5.00

Query block: Look up pEC50: CC(C)[C@H](CC(N)=O)NC(=O)c1ccc(N2CC(F)(F)C2)c(OCC2CC2)n1 [Example 19]
Result block: < 5.00

Query block: Look up pEC50: CNC(=O)CC1(NC(=O)c2ccc(C(F)(F)F)c(OCC3CC3)n2)COC1 [Example 39]
Result block: < 5.00

Query block: Look up pEC50: NC(=O)CC1(NC(=O)c2ccc(N3CC(F)(F)C3)c(OCC3CC3)n2)CCN(C(=O)OCc2ccccc2)C1 (centres unmarked) [Example 83]
Result block: < 5.00

Query block: Look up pEC50: NC(=O)CC1(NC(=O)c2ccc(N3CC(F)(F)C3)c(OCC3CC3)n2)CNC(=O)C1 (centres unmarked) [Example 54]
Result block: < 5.00
